IC50: recorded values
# Tested on: PBMCs
# protocol: IL-2 release in CD3/CD28 stimulated PBMC cells (assay c)
# Format: cell-based
# conditions: Homo sapiens, read-out: IC50 Values for Inhibition of Cytokine Release, PBMCs IL-2

{"columns": ["compound", "IC50 / µM"],
 "data": [
  ["COc1cc(Nc2cc(Oc3ccc(NC(=O)Nc4cc(C(C)(C)C)cc(C(=O)NCCN5CCOCC5)c4OC)c4ccccc34)ccn2)cc(C(=O)NCCN2CCOCC2)c1 [Example 60]", 0.101],
  ["COc1cc(Nc2cc(Oc3ccc(NC(=O)Nc4cc(C(C)(C)C)cc(CC(N)=O)c4OC)c4ccccc34)ccn2)cc(S(=O)(=O)C2CC2)c1 [38(ad)]", 0.214],
  ["COc1cc(Nc2cc(Oc3ccc(NC(=O)Nc4cc(C(C)(C)C)cc(CC(N)=O)c4OC)c4ccccc34)ccn2)cc(OC)c1 [Example 30]", 0.0945],
  ["COc1cc(C#N)cc(Nc2cc(Oc3ccc(NC(=O)Nc4cc(C(C)(C)C)cc(CC(N)=O)c4OC)c4ccccc34)ccn2)c1 [38(ah)]", 0.35],
  ["COc1cc(Nc2cc(Oc3ccc(NC(=O)Nc4cc(C(C)(C)C)cc(CC(N)=O)c4OC)c4ccccc34)ccn2)ccn1 [38(k)]", 0.281],
  ["COCCOCCOCCNC(=O)c1cc(Nc2cc(Oc3ccc(NC(=O)Nc4cc(C(C)(C)C)cc(S(C)(=O)=O)c4OC)c4ccccc34)ccn2)cc(OC)c1 [38(ab)]", 0.317]
]}

This collection of values is drawn from patent US9890185B2.
